test system: ATP; test: switch fluorescence ratio, 500 uM ATP over buffer (Cy3 cluster intensity, sum of 5 cycles each) (fold (ratio)); higher = stronger signal-on switching upon ATP binding; sequences stand for … in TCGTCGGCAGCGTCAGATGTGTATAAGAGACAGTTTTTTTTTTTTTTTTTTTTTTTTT…TC; conditions: aptamer strand: ATP DNA aptamer (quencher-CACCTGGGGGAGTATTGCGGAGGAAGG + anchor), 100 nM annealed; ATP concentration: 500 uM;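 note: ATP exposure 15 min at 22 °C before imaging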
For each record, write down the corresponding switch fluorescence ratio.
Field format: numeric only.

Memo: `CCAGTCAACG` , reported switch fluorescence ratio: 0.98

Memo: `CTGGCAACGA` , reported switch fluorescence ratio: 1.06

Memo: `GAGGGGGCCC` , reported switch fluorescence ratio: 1.01

Memo: `GCCTTACATT` , reported switch fluorescence ratio: 1.01

Memo: `ATGCGAAACC` , reported switch fluorescence ratio: 1.02

Memo: `TAGGTAGTTT` , reported switch fluorescence ratio: 0.969

Memo: `TTTCTTTTTT` , reported switch fluorescence ratio: 1

Memo: `TTGGGCGACG` , reported switch fluorescence ratio: 1.04

Memo: `TTTACCCAGT` , reported switch fluorescence ratio: 1.04

Memo: `AGATTGTACA` , reported switch fluorescence ratio: 1.02

Memo: `GAGTTCGAGG` , reported switch fluorescence ratio: 1.02

Memo: `AGATTACGAG` , reported switch fluorescence ratio: 1.02

Memo: `ATTATAGTTG` , reported switch fluorescence ratio: 1.04

Memo: `TGAAGGTACA` , reported switch fluorescence ratio: 1.03

Memo: `GGTGGGCGGG` , reported switch fluorescence ratio: 1.01

Memo: `CAGGGTGTGG` , reported switch fluorescence ratio: 0.976

Memo: `TAATAGGGGC` , reported switch fluorescence ratio: 0.991

Memo: `CGGTTTAGCG` , reported switch fluorescence ratio: 0.98

Memo: `TCCAGGAGGG` , reported switch fluorescence ratio: 1.02

Memo: `CAATATGACT` , reported switch fluorescence ratio: 0.991

----------
test system: ATP; test: switch fluorescence ratio, 500 uM ATP over buffer (Cy3 cluster intensity, sum of 5 cycles each) (fold (ratio)); higher = stronger signal-on switching upon ATP binding; sequences stand for … in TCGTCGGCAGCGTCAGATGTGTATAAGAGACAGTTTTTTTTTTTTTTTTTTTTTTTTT…TC; details: aptamer strand: ATP DNA aptamer (quencher-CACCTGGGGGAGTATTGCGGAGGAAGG + anchor), 100 nM annealed; ATP concentration: 500 uM;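 note: ATP exposure 15 min at 22 °C before imaging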
quantity-measured: switch fluorescence ratio
Field format: numeric only.

Memo: `TGTGTGAAAA` , reported switch fluorescence ratio: 1

Memo: `TGATGAAAGG` , reported switch fluorescence ratio: 0.987

Memo: `AGGTTTTCTC` , reported switch fluorescence ratio: 1.02

Memo: `GATTTCATG` , reported switch fluorescence ratio: 0.993

Memo: `TAAATTATGT` , reported switch fluorescence ratio: 0.982

Memo: `TGAAGGTTAC` , reported switch fluorescence ratio: 1.02

Memo: `GGGATTAAGA` , reported switch fluorescence ratio: 0.98

Memo: `CGGTAAAGAT` , reported switch fluorescence ratio: 1

Memo: `CATAGAAAAT` , reported switch fluorescence ratio: 0.965

Memo: `TTTTGGCAAC` , reported switch fluorescence ratio: 1.04

Memo: `TTCACACTA` , reported switch fluorescence ratio: 1.07

Memo: `CCAATTTGAA` , reported switch fluorescence ratio: 0.991

Memo: `GCAGTTAAGT` , reported switch fluorescence ratio: 1

Memo: `ACGGGGGCCT` , reported switch fluorescence ratio: 1.01

Memo: `GCGATGTGGT` , reported switch fluorescence ratio: 1.01

Memo: `ATTGCAGATC` , reported switch fluorescence ratio: 1.05

Memo: `AATACCGTT` , reported switch fluorescence ratio: 0.968

Memo: `GTTGGGCAGC` , reported switch fluorescence ratio: 1.05

Memo: `TATAGTTTTG` , reported switch fluorescence ratio: 0.996

Memo: `GGAGGGGAAG` , reported switch fluorescence ratio: 1.07

Memo: `TCGTTAATTT` , reported switch fluorescence ratio: 1.01

Memo: `GACGATGTAA` , reported switch fluorescence ratio: 1.18

Memo: `TTAAGGATA` , reported switch fluorescence ratio: 1.01

Memo: `GATGCAGTTC` , reported switch fluorescence ratio: 1.66

Memo: `ATAGAGGGTG` , reported switch fluorescence ratio: 1.05

Memo: `TGAATCTAGA` , reported switch fluorescence ratio: 1.01

Memo: `CGGCAGGTTT` , reported switch fluorescence ratio: 0.992

Memo: `AATAGGGTTC` , reported switch fluorescence ratio: 0.982

Memo: `ATTGTATGGG` , reported switch fluorescence ratio: 0.974

Memo: `AAGCCAGGGG` , reported switch fluorescence ratio: 1.46

Memo: `AATATTTCAT` , reported switch fluorescence ratio: 0.966

Memo: `AAAGAGCAAG` , reported switch fluorescence ratio: 1.11

Memo: `TTTAATAGTG` , reported switch fluorescence ratio: 0.971

Memo: `GCATAGGGCG` , reported switch fluorescence ratio: 1.01

Memo: `TAGGATTAAT` , reported switch fluorescence ratio: 0.999

Memo: `TTGGGGTTAA` , reported switch fluorescence ratio: 1.03

Memo: `CGAGCGTGTG` , reported switch fluorescence ratio: 1

Memo: `TAGGGAGAGT` , reported switch fluorescence ratio: 1.01

Memo: `GCGATGTGAC` , reported switch fluorescence ratio: 1.22

Memo: `TATGTTGTTT` , reported switch fluorescence ratio: 1.04

Memo: `ATTCACCGGA` , reported switch fluorescence ratio: 1.03

Memo: `ATGTGCTGGT` , reported switch fluorescence ratio: 0.991

Memo: `TAAGAGATTG` , reported switch fluorescence ratio: 1.01

----------
system: ATP; assay: switch fluorescence ratio, 500 uM ATP over buffer (Cy3 cluster intensity, sum of 5 cycles each) (fold (ratio)); higher = stronger signal-on switching upon ATP binding; sequences stand for … in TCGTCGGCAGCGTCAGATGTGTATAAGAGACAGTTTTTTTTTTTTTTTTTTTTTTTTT…TC; details: aptamer strand: ATP DNA aptamer (quencher-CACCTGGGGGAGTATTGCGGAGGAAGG + anchor), 100 nM annealed; ATP concentration: 500 uM;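 note: ATP exposure 15 min at 22 °C before imaging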
For each record, write down the corresponding switch fluorescence ratio.
Field format: numeric only.

Memo: `GGCCCGCGTT` , reported switch fluorescence ratio: 1.11

Memo: `ACGGAGGGCT` , reported switch fluorescence ratio: 1.02

Memo: `CAATGATTGA` , reported switch fluorescence ratio: 1.02

Memo: `CTTTTTATGT` , reported switch fluorescence ratio: 0.96

Memo: `TTTGAAGACT` , reported switch fluorescence ratio: 0.98

Memo: `CAAGGAGTTA` , reported switch fluorescence ratio: 1.01

Memo: `TGCGTCTGAT` , reported switch fluorescence ratio: 1

Memo: `TGTTGTGTGT` , reported switch fluorescence ratio: 0.985

Memo: `AATTCGACGA` , reported switch fluorescence ratio: 1.01

Memo: `GATTTTCGTC` , reported switch fluorescence ratio: 0.996

Memo: `CCGTCAAGAG` , reported switch fluorescence ratio: 4.35

Memo: `TAGCTATGTG` , reported switch fluorescence ratio: 0.982

Memo: `AAATTTTCGA` , reported switch fluorescence ratio: 1.02

Memo: `GTGAGAAAGG` , reported switch fluorescence ratio: 0.982

Memo: `TTAAGGGGAC` , reported switch fluorescence ratio: 1.04

Memo: `TTATGGGGAT` , reported switch fluorescence ratio: 0.988

Memo: `GCCTTCGGAA` , reported switch fluorescence ratio: 3.13

Memo: `TAAGATTGTA` , reported switch fluorescence ratio: 0.993

Memo: `GGGTTCTGGA` , reported switch fluorescence ratio: 1.01

Memo: `ACGTGTTGGC` , reported switch fluorescence ratio: 1.02

----------
system: ATP; experiment: switch fluorescence ratio, 500 uM ATP over buffer (Cy3 cluster intensity, sum of 5 cycles each) (fold (ratio)); higher = stronger signal-on switching upon ATP binding; sequences stand for … in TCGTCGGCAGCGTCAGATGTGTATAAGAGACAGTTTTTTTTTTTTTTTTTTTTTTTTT…TC; conditions: aptamer strand: ATP DNA aptamer (quencher-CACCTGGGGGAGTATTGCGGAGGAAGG + anchor), 100 nM annealed; ATP concentration: 500 uM;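 note: ATP exposure 15 min at 22 °C before imaging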
// No strictly below 1 in switch fluorescence ratio; Yes otherwise

Enquiry: Threshold query (switch fluorescence ratio >= 1) on `ACTGGGGGGC`
Return: Yes

Enquiry: Threshold query (switch fluorescence ratio >= 1) on `ATGATGGACG`
Return: Yes

Enquiry: Threshold query (switch fluorescence ratio >= 1) on `CCGGTGTCTG`
Return: Yes

Enquiry: Threshold query (switch fluorescence ratio >= 1) on `AATATGTCTG`
Return: No

Enquiry: Threshold query (switch fluorescence ratio >= 1) on `TCTTGCATAG`
Return: Yes

Enquiry: Threshold query (switch fluorescence ratio >= 1) on `TAGGGAATCA`
Return: No

Enquiry: Threshold query (switch fluorescence ratio >= 1) on `AGTGGGATGG`
Return: Yes

Enquiry: Threshold query (switch fluorescence ratio >= 1) on `AATAGGTGGG`
Return: No

Enquiry: Threshold query (switch fluorescence ratio >= 1) on `TGCAATTAAC`
Return: Yes
